B1: HESX1 (parent)
chain: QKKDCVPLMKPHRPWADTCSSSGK

variants of: B1; experiment: protein stability index of a GFP-peptide fusion (GPS, HEK-293T) (PSI 1-6); higher = more stable; settings: c terminus: a fixed tail appended;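 note: lentivirally expressed fusions sorted by FACS into six bins by GFP to DsRed ratio, PSI derived from sequencing read proportions per bin multiplied by bin number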
Would you kindly list protein stability index for each of these variants?
Lab note: jot the number down without any unit.

Ask: May I ask what protein stability index has been recorded for QKKDCVPLMKPHRPWAVTCSSSGK [D17V] ?
Reply: 2.91

Ask: Given the variant QKKDCMPLMKPHRPWADTCSSSGK [V6M] , what is its reported protein stability index?
Reply: 3.05

Ask: Fill in: protein stability index of QKRDCVPLMKPHRPWADTCSSSGK [K3R] is ___
Reply: 2.92

Ask: Entry QKKDCVPLMKPTRPWADTCSSSGK [H12T] has what protein stability index?
Reply: 3.08

Ask: Which protein stability index value belongs to QKKDCVPLMKPHRPWADTCISSGK [S20I] ?
Reply: 2.98

Ask: Look up protein stability index for this variant: QKKDCVPLMKPHRPWADTCSSAGK [S22A]
Reply: 2.95

Ask: What value of protein stability index has been recorded for this entry: QKKDCVPLKKPHRPWADTCSSSGK [M9K]
Reply: 3.08

Ask: Using the record for QKKDCVHLMKPHRPWADTCSSSGK [P7H] , report its protein stability index.
Reply: 2.92

Ask: Find the recorded protein stability index belonging to QKQDCVPLMKPHRPWADTCSSSGK [K3Q] and report it.
Reply: 3.06

Ask: Give its protein stability index value. Item: QSKDCVPLMKPHRPWADTCSSSGK [K2S]
Reply: 3.06
